- tested_system: UniProt:P21453
- Sequence (P21453 whole entry): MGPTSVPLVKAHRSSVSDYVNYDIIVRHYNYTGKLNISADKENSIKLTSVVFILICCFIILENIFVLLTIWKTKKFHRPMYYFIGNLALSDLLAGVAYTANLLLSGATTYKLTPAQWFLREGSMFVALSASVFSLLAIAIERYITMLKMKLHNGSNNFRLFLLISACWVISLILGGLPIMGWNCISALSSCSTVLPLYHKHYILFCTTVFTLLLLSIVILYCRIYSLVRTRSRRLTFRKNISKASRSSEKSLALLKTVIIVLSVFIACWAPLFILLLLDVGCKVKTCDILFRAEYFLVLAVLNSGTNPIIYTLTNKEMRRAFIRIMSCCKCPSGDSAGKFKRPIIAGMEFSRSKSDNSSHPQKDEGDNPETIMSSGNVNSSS
- assay_comment: Method B: Receptor [35S] GTPγS SPA Binding Assay, membranes from S1P1 transfected CHO cells
- Assay type: biochemical
- Parameters: expressed in transfected cells; host or cells: S1P1/CHO cells
- experimental_context: ratio of GTPγS S1P3 EC50 to GTPγS S1P1 EC50, Method B
Structures can show the parent of a compound that is named as a salt.
The reader will find reported GTPγS S1P3/S1P1 (Method B) values listed item by item below.

Field: example entries. Status: answers known.
CC(F)(F)c1c(-c2nc(-c3ccc(CN4CC(C(=O)O)C4)cc3)no2)noc1-c1ccccc1 [Example 9]; 6,500
O=C(O)C1CN(Cc2ccc(-c3noc(-c4noc(-c5ccccc5)c4C(F)(F)F)n3)cc2)C1 [Example 2]; 4,600

## Input I have this compound here, CCCc1c(-c2nc(-c3ccc(CN4CC(C(=O)O)C4)cc3)no2)noc1CC(C)C [Example 18, TFA] , and I need its recorded GTPγS S1P3/S1P1 (Method B).
## Output 1,400

## Input Same again, this time with O=C(O)C1CN(Cc2ccc(-c3noc(-c4onc(-c5ccccc5)c4C(F)F)n3)cc2)C1 [Example 12]
## Output 11,000

## Input Same again, this time with CC(C)(C)c1c(-c2nc(-c3ccc(CN4CC(C(=O)O)C4)cc3)no2)noc1-c1ccccc1 [Example 7]
## Output 5,400

## Input Same again, this time with O=C(O)C1CN(Cc2ccc(-c3noc(-c4cc(-c5ccccc5)c(C(F)(F)F)s4)n3)cc2)C1 [Comp. A, reference compound]
## Output 78

## Input Same again, this time with CCCc1c(-c2ccccc2)noc1-c1nc(-c2ccc(CN3CC(C(=O)O)C3)cc2)no1 [Example 11]
## Output 2,900

## Input Same again, this time with O=C(O)C1CN(Cc2ccc(-c3noc(-c4onc(-c5ccccc5)c4C(F)(F)F)n3)cc2)C1 [Example 1]
## Output 11,000

## Input Same again, this time with O=C(O)C1CN(Cc2ccc(-c3noc(-c4noc(-c5ccccc5)c4-c4ccccc4)n3)cc2)C1 [Example 17]
## Output 112
